# measurement-target: human TLR8 (Homo sapiens, UniProt Q9NR97)
# Sequence (Q9NR97 27-1041): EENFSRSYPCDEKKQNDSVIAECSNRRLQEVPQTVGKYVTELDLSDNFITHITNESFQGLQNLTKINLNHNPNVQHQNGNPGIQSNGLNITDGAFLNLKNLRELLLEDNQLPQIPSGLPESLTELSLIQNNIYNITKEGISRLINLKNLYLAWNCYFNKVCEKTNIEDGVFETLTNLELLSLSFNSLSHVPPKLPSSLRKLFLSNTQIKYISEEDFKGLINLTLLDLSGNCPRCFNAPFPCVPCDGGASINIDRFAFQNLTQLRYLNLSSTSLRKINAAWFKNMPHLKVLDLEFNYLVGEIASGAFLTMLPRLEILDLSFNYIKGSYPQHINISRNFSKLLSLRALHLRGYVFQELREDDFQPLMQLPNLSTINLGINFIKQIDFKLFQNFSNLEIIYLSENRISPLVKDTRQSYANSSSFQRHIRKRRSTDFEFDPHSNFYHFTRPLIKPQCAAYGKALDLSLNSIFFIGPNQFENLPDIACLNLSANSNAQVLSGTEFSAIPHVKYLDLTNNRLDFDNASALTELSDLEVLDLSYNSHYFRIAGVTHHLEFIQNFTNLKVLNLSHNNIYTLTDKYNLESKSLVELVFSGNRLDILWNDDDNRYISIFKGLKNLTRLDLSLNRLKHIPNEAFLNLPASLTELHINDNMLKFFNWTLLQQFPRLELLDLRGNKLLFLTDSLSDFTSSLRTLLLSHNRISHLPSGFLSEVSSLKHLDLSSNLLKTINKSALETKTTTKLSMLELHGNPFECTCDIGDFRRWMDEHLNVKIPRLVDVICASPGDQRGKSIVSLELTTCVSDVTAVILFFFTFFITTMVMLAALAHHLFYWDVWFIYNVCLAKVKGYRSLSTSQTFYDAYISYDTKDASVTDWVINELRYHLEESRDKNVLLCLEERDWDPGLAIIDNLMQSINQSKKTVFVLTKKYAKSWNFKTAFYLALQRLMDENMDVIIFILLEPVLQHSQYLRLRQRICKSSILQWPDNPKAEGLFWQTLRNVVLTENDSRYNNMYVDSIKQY
# measurement-protocol: TLR8 inhibition reporter assay (HEK-Blue SEAP)
# condition-context: HEK-Blue cells overexpressing human TLR8, stimulated with R848 15.9 μM, 22 hour incubation
pIC50: −log10 of the molar value.
Label rule, in plain words: pIC50 of 8 and up is Y, under 8 is N.

Check out these entries, answers already filled in.
Cc1cc2c(C3CCC(N(C)C4COC4)CC3)n[nH]c2cc1-c1cc(C)c2ncnn2c1 (single isomer, unassigned) [Example 33]	Y
Cc1cc(-c2cc(C)c3ncnn3c2)cc2[nH]nc(C3CCCN(C)C3)c12 (stereo not shown)	N
Cc1cc2c(OC3CCC(N(C)C)CC3)n[nH]c2cc1-c1cc(C)c2ncnn2c1 (single isomer, unassigned) [Example 181]	N

Prompt: Reported pIC50 reaches at least 8 for `COc1cc(-c2cc3[nH]ncc3cc2C)cn2ncnc12` ?
Completion: N

Prompt: Reported pIC50 reaches at least 8 for Cc1cc(-c2cc3[nH]nc(C4CCC(N5CCC(S(C)(=O)=O)C5)CC4)c3cc2C(C)C)cn2ncnc12 (single isomer, unassigned) [Example 211] ?
Completion: Y

Prompt: Reported pIC50 reaches at least 8 for Cc1cc2c(C3CCCN(C(=O)CN(C)C)C3)n[nH]c2cc1-c1cc(C)c2ncnn2c1 (stereo not shown) [Example 56] ?
Completion: Y
